tested on: Hepatitis C virus; experiment: Antiviral activity against wild type Hepatitis C virus genotype 1a harboring C316Y mutant infected in human HuH7 cells assessed as inhibition of viral replication after 48 hrs by luciferase reporter gene assay; type: functional, organism-based, Hepacivirus hominis; details: subtype 1a, Huh-7, 48 h
pEC50: −log10 of the molar value.
Classification field: enter Fulfilled for pEC50 values not below 7, Not fulfilled for values below it.

Look over these answered cases.
CNC(=O)c1c(-c2ccc(F)cc2)oc2cc(N(Cc3ccc(B(O)O)c(F)c3)S(C)(=O)=O)c(C3CC3)cc12: Fulfilled
CNC(=O)c1c(-c2ccc(F)cc2)oc2cc(N(Cc3cc(F)c4c(c3)COB4O)S(C)(=O)=O)c(C3CC3)cc12: Not fulfilled
CNC(=O)c1c(-c2ccc(F)cc2)oc2cc(N(C[C@@H]3COB(O)C3)S(C)(=O)=O)c(C3CC3)cc12: Not fulfilled
CNC(=O)c1c(-c2ccc(F)cc2)oc2cc(N(Cc3ccc4c(c3)CCOB4O)S(C)(=O)=O)c(C3CC3)cc12: Not fulfilled
CNC(=O)c1c(-c2ccc(F)cc2)oc2cc(N(CCC3OB(O)c4ccccc43)S(C)(=O)=O)c(C3CC3)cc12 (racemic): Not fulfilled

Shifting focus to the molecule that follows.
Ask: Check the entry CNC(=O)c1c(-c2ccc(F)cc2)oc2cc(N(CCO)S(C)(=O)=O)c(C3CC3)cc12 : does pEC50 equal or exceed 7?
Reply: Not fulfilled

---

experiment: Bioavailability in Sprague-Dawley rat at 1 mg/kg, iv and 5 mg/kg, po; type: ADME, organism-based; details: in vivo
measured_quantity: bioavailability

Ask: Param item = CNC(=O)c1c(-c2ccc(F)cc2)oc2cc(N(Cc3ccc(B(O)O)cc3)S(C)(=O)=O)c(C3CC3)cc12 ; retrieve measured bioavailability.
Reply: < 3%

---

target: RNA-directed RNA polymerase (Hepacivirus hominis, UniProt O39930, C316N); test: Inhibition of Hepatitis C virus genotype 1b NS5B Cdelta21 RNA dependent RNA polymerase 316N mutant using biotinylated polyC:oligoG/[alpha-P33]-GTP as template/substrate preincubated for 15 mins followed by template/substrate addition by scintillation proximity assay; parameters: species or system Hepatitis C virus subtype 1b
Sequence (O39930 entry or part of it C316N): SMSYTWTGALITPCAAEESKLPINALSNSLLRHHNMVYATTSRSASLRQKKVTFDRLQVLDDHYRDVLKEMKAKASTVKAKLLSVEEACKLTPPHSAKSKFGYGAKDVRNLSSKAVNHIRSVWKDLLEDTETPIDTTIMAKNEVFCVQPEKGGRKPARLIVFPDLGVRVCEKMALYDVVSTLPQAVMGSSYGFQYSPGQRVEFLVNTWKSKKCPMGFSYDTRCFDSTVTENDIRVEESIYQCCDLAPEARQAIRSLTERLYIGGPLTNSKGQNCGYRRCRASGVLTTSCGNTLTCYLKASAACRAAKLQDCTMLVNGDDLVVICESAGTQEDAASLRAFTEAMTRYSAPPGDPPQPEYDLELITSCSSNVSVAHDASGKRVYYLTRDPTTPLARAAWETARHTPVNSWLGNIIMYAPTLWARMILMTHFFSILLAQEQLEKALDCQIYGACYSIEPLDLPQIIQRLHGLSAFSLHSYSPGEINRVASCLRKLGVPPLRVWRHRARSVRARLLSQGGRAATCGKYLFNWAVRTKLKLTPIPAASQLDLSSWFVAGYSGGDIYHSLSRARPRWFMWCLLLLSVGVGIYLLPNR
Quick reference for IC50 among some molecules

CNC(=O)c1c(-c2ccc(F)cc2)oc2cc(N(Cc3ccc(B(O)O)c(F)c3)S(C)(=O)=O)c(C3CC3)cc12: 130 nM

Ask: Param item = CNC(=O)c1c(-c2ccc(F)cc2)oc2cc(N(CCO)S(C)(=O)=O)c(C3CC3)cc12 ; retrieve measured IC50.
Reply: 160 nM
